These entries and their values trace back to patent US9649305B2.

Assay: IV pharmacokinetics in rats, 30 mg/kg
Format: in vivo
Conditions: plasma, Table 7, Rat (30 mg/kg), Sprague Dawley rats
measured-metric: AUC(0-inf) (ng·h/mL)
Supply the numeric figure in ng·h/mL, leaving out any unit text.

Which measured AUC(0-inf) value corresponds to O=C(/C=C/c1ccc2ccc(C(F)(F)F)cc2n1)c1ccncc1 [PFK-158] ?
3300

###

Assay: Toxicology study in dogs at 40 mg/kg
Format: in vivo, beagle dogs
Conditions: both sexes, beagle, dog, in vivo
measured-metric: NOAEL at 3 weeks (mg/kg)
Supply the numeric figure in mg/kg, leaving out any unit text.

Which measured NOAEL at 3 weeks value corresponds to "O=C(/C=C/c1ccc2ccc(C(F)(F)F)cc2n1)c1ccncc1" ?
40

###

Assay: IV pharmacokinetics in mice
Type: in vivo, Balbc mice
Details: mouse, plasma, 5 mg/kg; Table 2; Balbc mice, IV dosing
Please go through the items and note down their clearance.
Supply the numeric figure in mL/min/kg, leaving out any unit text.

Which measured clearance value corresponds to "O=C(/C=C/c1ccc2ccccc2n1)c1ccncc1" ?
46

Likewise for "O=C(/C=C/c1ccc2ccc(C(F)(F)F)cc2n1)c1ccncc1" ?
26

###

Please go through the items and note down their AUC(0-inf).
Assay: IV pharmacokinetics in mice
Type: in vivo, Balbc mice
Conditions: mouse, plasma, 5 mg/kg; Table 2; Balbc mice, IV dosing; read-out: AUC0-inf
Supply the numeric figure in ng·h/mL, leaving out any unit text.

Which measured AUC(0-inf) value corresponds to "O=C(/C=C/c1ccc2ccc(C(F)(F)F)cc2n1)c1ccncc1" ?
3240

Likewise for "O=C(/C=C/c1ccc2ccccc2n1)c1ccncc1" ?
1800
